Data origin, for the record: patent US20180201592A1

# Tested on: Aspergillus niger
# assay.comment: Minimum inhibitory concentration, YAG medium
# Assay type: cell-based
# condition.details: banded MIC grade
quantity.measured: MIC grade, A. NIGER, YAG media

1. NC1=NN=C(CCCCCC(=O)O)CS1
2 (2: 1-5 mg/L)
2. CCCCCCCC1=CSC(N)=NN1
4 (4: <0.2 mg/L)
3. NC1=NN=C(CCCCOCc2ccc(Cl)cc2Cl)CS1
3 (3: 0.2-1 mg/L)
4. CCc1ccc(OCCCCC2=NN=C(N)SC2)cc1
3 (3: 0.2-1 mg/L)
5. CCCCOC(=O)CC1=NN=C(N)SC1
3 (3: 0.2-1 mg/L)
6. NC1=NN=C(CCCCOCc2ccccc2)CS1
4 (4: <0.2 mg/L)
7. NC1=NN=C(CCCCOCc2ccc(Br)cc2)CS1
4 (4: <0.2 mg/L)
8. NC1=NN=C(CCCCCOc2ccccn2)CS1
4 (4: <0.2 mg/L)
9. CCCCOCCC1=NN=C(N)SC1
4 (4: <0.2 mg/L)
10. NC1=NN=C(CCCCOCCc2ccccc2)CS1
3 (3: 0.2-1 mg/L)
11. CCC(=O)OCC1=NN=C(N)SC1
3 (3: 0.2-1 mg/L)
12. CC(C)c1ccc(C2=NN=C(N)SC2)cc1
1 (1: ≥5 mg/L)
13. NC1=NN=C(CCCCOCc2cccc(Oc3ccccc3)c2)CS1
2 (2: 1-5 mg/L)
14. CN(CCCCCC1=NN=C(N)SC1)c1ccccc1
3 (3: 0.2-1 mg/L)
15. COCCC1=NN=C(N)SC1
3 (3: 0.2-1 mg/L)
16. Cc1cc(COCCCCC2=NN=C(N)SC2)ccc1F
4 (4: <0.2 mg/L)
17. NC1=NN=C(CCOCc2ccc(-c3ccccc3)cc2)CS1
3 (3: 0.2-1 mg/L)

====

Measured MIC grade, A. NIGER, YAG media, listed per entry.
# Test system: Aspergillus niger
# assay.comment: Minimum inhibitory concentration, YAG medium
# Type: cell-based
# condition.details: banded MIC grade
quantity.measured: MIC grade, A. NIGER, YAG media

1. NC1=NN=C(CCCCOCc2cccc(Cl)c2)CS1
4 (4: <0.2 mg/L)
2. NC1=NN=C(CCCCOCc2ccc(Cl)c(F)c2)CS1
4 (4: <0.2 mg/L)
3. CCCOc1ccc(CCC2=NN=C(N)SC2)cc1
4 (4: <0.2 mg/L)
4. COc1ccc(COCCCCC2=NN=C(N)SC2)cc1
2 (2: 1-5 mg/L)
5. NC1=NN=C(CCCCC(=O)Nc2ccccc2)CS1
2 (2: 1-5 mg/L)
6. NC1=NN=C(CCOCCCc2ccccc2)CS1
4 (4: <0.2 mg/L)

====

# System: Aspergillus niger
# assay.comment: Minimum inhibitory concentration, YAG medium
# Assay type: cell-based
# condition.details: banded MIC grade
# Method: The compound was dissolved in DMSO to give a solution containing 5 mg/mL. Tubes were stored at −20° C. until required. On the day of testing thawed solutions were vortex mixed to ensure homogeneity. 30 μL of solution was removed and added to 570 μL of sterile water in a separate sterile Eppendorf. […] Growth was assessed by monitoring the optical density at 485 nm for each well. […] MICs are recorded as mg/L.
quantity.measured: MIC grade, A. NIGER, YAG media

1) NC1=NN=C(CCCCOc2ccccc2)CS1
4 (4: <0.2 mg/L)
2) NC1=NN=C(CCCCCCCOc2ccccc2)CS1
4 (4: <0.2 mg/L)
3) Cc1ccc(COCCC2=NN=C(N)SC2)cc1
4 (4: <0.2 mg/L)
